- measuredOn: nicotinic receptors (rat brain membranes)
- Assay type: binding
- conditions: read-out: Kd value in competition binding
measuredProperty: Kd

# input State its Kd: C[N+](C)(C)CCCCCC[N+](C)(C)C [hexamethonium]
# output > 100 µM

----------
- measuredOn: nicotinic receptors (rat brain membranes)
- conditions: pH 7.5; read-out: 3H-MCC Binding IC50
measuredProperty: pIC50
# pIC50 is unitless: minus log10 of the molar concentration; print number only

# input Give recorded pIC50. C[N+]1(C)CCCC1c1cccnc1 (centres unmarked) [N'--methyl nicotonium]
# output 5.40

# input Report measured pIC50; entry is CNC(=O)OCCN(C)C [DMAE methylcarbamate, dimethylaminoethylmethylcarbamate]
# output 6.10

# input Output measured pIC50 for this item: CCN1CCCC1c1cccnc1 (centres unmarked) [N'--ethyl nornicotine, reference compound]
# output 7.00

# input Item CN(C)CCOC(=O)CCC(=O)OCCN(C)C [DMAE succinate] : provide pIC50
# output 4.22

# input Answer with the recorded pIC50 for the compound listed here: CN(C)CCOC(N)=O [DMAE carbamate]
# output 5.00
